Hey, just so you know, these numbers are from ChEMBL document CHEMBL5727031.

- Measurement protocol: In Vitro GIRK Thallium Flux Assay (2.5 minutes): Human Embryonic Kidney (HEK-293) cell lines co-expressing rat mGlu receptors 2, 3, 4, 6, 7 or 8 and G protein-coupled inwardly-rectifying potassium (GIRK) channels_ENREF_54 were grown in Growth Media containing 45% DMEM, 45% F-12, 10% FBS, 20 mM HEPES, 2 mM L-glutamine, antibiotic/antimycotic, non-essential amino acids, 700 μg/ml G418, and 0.6 μg/ml puromycin at 37° C. in the presence of 5% CO2. All cell culture reagents were purchased from Invitrogen Corp. (Carlsbad, Calif.) unless otherwise noted. Compound activity at the group II (mGlu2 and mGlu3) mGlus was assessed using thallium flux through GIRK channels. Briefly, cells were plated into 384-well, black-walled, clear-bottomed poly-D-lysine-coated plates at a density of 15,000 cells/20 μL/well in DMEM containing 10% dialyzed FBS, 20 mM HEPES, and 100 units/mL penicillin/streptomycin (assay media). Plated cells were incubated overnight at 37° C. in the presence of 5% CO2. The following day, the medium was exchanged from the cells to assay buffer [Hanks' balanced salt solution (Invitrogen) containing 20 mM HEPES, pH 7.3] using an ELX405 microplate washer (BioTek), leaving 20 μL/well, followed by the addition of 20 μL/well FluoZin2-AM (330 nM final concentration) indicator dye (Invitrogen; prepared as a stock in DMSO and mixed in a 1:1 ratio with Pluronic acid F-127) in assay buffer. Cells were incubated for 1 h at room temperature, and the dye exchanged to assay buffer using an ELX405, leaving 20 μL/well. Test compounds were diluted to 2 times their final desired concentration in assay buffer (0.3% DMSO final concentration). Agonists were diluted in thallium buffer [125 mM sodium bicarbonate (added fresh the morning of the experiment), 1 mM magnesium sulfate, 1.8 mM calcium sulfate, 5 mM glucose, 12 mM thallium sulfate, and 10 mM HEPES, pH 7.3] at 5 times the final concentration to be assayed. Cell plates and compound plates were loaded onto a kinetic imaging plate reader (FDSS 6000 or 7000; Hamamatsu Corporation, Bridgewater, N.J.). Appropriate baseline readings were taken (10 images at 1 Hz; excitation, 470±20 nm; emission, 540±30 nm) and test compounds were added in a 20 μL volume and incubated for either 2.5 min or 60 min as indicated before the addition of 10 μL of thallium buffer with or without agonist. After the addition of agonist, data were collected for approximately an additional 2.5 min. Data were analyzed using Excel (Microsoft Corp, Redmond, Wash.). The slope of the fluorescence increase beginning 5 s after thallium/agonist addition and ending 15 s after thallium/agonist addition was calculated, corrected to vehicle and maximal agonist control slope values, and plotted in using either XLfit (ID Business Solutions Ltd) or Prism software (GraphPad Software, San Diego, Calif.) to generate concentration-response curves. Potencies were calculated from fits using a four-point parameter logistic equation. For concentration-response curve experiments, compounds were serially diluted 1:3 into 10 point concentration response curves and were transferred to daughter plates using an Echo acoustic plate reformatter (Labcyte, Sunnyvale, Calif.). Test compounds were applied and followed by EC80 concentrations of glutamate.
- Measurement context: HEK293, 2.5 min
pEC50: −log10 of the molar value.
Please go through the items and note down their pEC50.

[in] Record request: pEC50 value, item c1ccc(-c2cccc(-c3csc(-c4cccc5ccccc45)n3)c2)cc1
[out] < 4.52

[in] Returns the measured pEC50 for the input compound. Input: CC(C)n1nc(-c2cccc(-c3ccccc3)c2)nc1-c1ccccc1
[out] < 5.00

[in] Can you share its pEC50? I mean this compound: c1ccc(-c2cccc(-c3nsc(-c4ccccc4)n3)c2)cc1
[out] 5.64

[in] Would you kindly share the measured pEC50 for c1ccc(-c2cccc(-c3nc(-c4ccoc4)n(-c4ccccc4)n3)c2)cc1 ?
[out] < 5.00

[in] Query (compound): COc1ccc(-c2nc(-c3cccc(-c4ccccc4)c3)cs2)cc1OC ; field requested: pEC50
[out] 5.40

[in] Fill in the blank: the reported pEC50 of Cc1nc(-c2cccc(-c3ccc(F)cc3)c2)cs1 is ____.
[out] < 5.00

[in] Item O=[N+]([O-])c1cccc(-c2cccc(-c3csc(-c4ccccc4)n3)c2)c1 has what recorded pEC50?
[out] < 5.00

[in] For the compound shown here, Fc1ccc(-c2cccc(-c3csc(-c4ccoc4)n3)c2)cc1 , give the reported pEC50.
[out] < 5.00

[in] What does the record list as pEC50 for Fc1ccc(-c2cccc(-c3nsc(-c4ccccc4)n3)c2)cc1 ?
[out] 6.28

[in] What value of pEC50 has been reported for the following compound? c1ccc(-c2cccc(-c3n[nH]c(-c4ccccc4)n3)c2)cc1
[out] < 4.52

[in] Look at this compound and give its reported pEC50. Clc1cccc(-c2cccc(-c3csc(-c4ccccc4)n3)c2)c1
[out] < 5.00
